Give measured GI50 for each item. Keep answers brief.
# System: MDA-MB-435
# Assay comment: NCI tumour cell line growth inhibition, 48 h
The source made the active and inactive calls. Rule as the data show it: active = GI50 up to about 1.1 µM and inactive = higher. Where a SMILES comes first, the peptide text is derived from it. The star is where a group is joined. Cbz = O=C(OCc1ccccc1)*

A selection of reference data follows.
{"Compound": "O=C(Nc1cccc(-c2cn3ccccc3n2)c1)c1ccncc1", "GI50": "31.9 µM (inactive)"}
{"Compound": "Fc1ccc(C2NC(=S)NC3=C2CCOc2c3ccc3ccccc23)cc1 (stereo not given)", "GI50": "8.53 µM (inactive)"}
{"Compound": "CC(C)C1/C(=N/O)CC(c2ccccc2)N(N=O)C1c1ccccc1 (stereo not given)", "GI50": "26.7 µM (inactive)"}
{"Compound": "CNNC1=NS(=O)(=O)c2cc(C)c(Cl)cc2S1", "GI50": "> 10 µM (inactive)"}
{"Compound": "COc1cc2oc(-c3ccc(O)cc3)cc(=O)c2c(OC)c1OC", "GI50": "> 100 µM (inactive)"}
{"Compound": "C=C(C)[C@@H]1CCC2=C[C@@H](OC2=O)[C@@H](C(=C)C)C2=CC(C(=O)O)=C(C1)O2", "GI50": "> 100 µM (inactive)"}
{"Compound": "Nc1ccc(S(=O)(=O)Nc2nnc(S(N)(=O)=O)s2)cc1", "GI50": "> 100 µM (inactive)"}
{"Compound": "CC(C)(CO)NC(=O)Nc1c(C(F)(F)F)cc(-c2ccccc2)[nH]c1=O", "GI50": "> 100 µM (inactive)"}

Look up GI50 for the entries below, preserving their order.
1. Cc1ccc2c(c1C)C(=O)C1(C2)Cc2ccc3c(c2C1=O)CCC3 (stereo not given)
2. CS(=O)(=O)Nc1ccc2c(c1)N(S(C)(=O)=O)CC2CCl (stereo not given)
3. CCOC(=O)CNC(=O)C(C)NC(=O)C(NC(=O)OCc1ccccc1)C(C)C (stereo not drawn) (Cbz-Val-Ala-Gly-OEt; configuration not given here)
4. CCCCCCc1cc2cc(C(=O)Nc3cccc(C(F)(F)F)c3)c(=N)oc2cc1O
5. O=C1c2ccccc2-c2ccc(/N=[N+](/[O-])c3ccc4c(c3)C(=O)c3ccccc3-4)cc21
6. Cc1ccc(S(=O)(=O)N2CC3OC(C)(C)OC3C2CO)cc1 (stereo not given)
7. Cc1c(O)c(=O)ccn1CCc1ccc(O)cc1

Reply:
> 100 µM (inactive)
> 100 µM (inactive)
> 100 µM (inactive)
2 µM (inactive)
> 100 µM (inactive)
> 100 µM (inactive)
42.2 µM (inactive)

====

Give measured GI50 for each item. Keep answers brief.
# Test system: SK-MEL-28
# Assay comment: NCI tumour cell line growth inhibition, 48 h
Structures can show the parent of a compound that is named as a salt. Active and inactive are the calls of the source. Rule as the data show it: active = GI50 up to about 1.1 µM and inactive = higher.

A selection of reference data follows.
{"Molecule": "Cc1cc(=O)oc2cc3c(cc12)Oc1ccccc1O3", "GI50": "> 100 µM (inactive)"}
{"Molecule": "Cc1oc2nc(N(C)C)n3nnnc3c2c1C", "GI50": "> 100 µM (inactive)"}
{"Molecule": "CCCC(=O)NC(Nc1ccc(S(=O)(=O)Nc2cc(C)on2)cc1)(C(=O)OCC)C(F)(F)F (configuration not stated)", "GI50": "> 100 µM (inactive)"}
{"Molecule": "CCOC(=O)NC(=O)c1cn(CC(=O)NCC(=O)NCC(=O)NCCCN2CCN(CCCNC(=O)CNC(=O)CNC(=O)Cn3cc(C(=O)NC(=O)OCC)c(=O)[nH]c3=O)CC2)c(=O)[nH]c1=O", "GI50": "> 100 µM (inactive)"}
{"Molecule": "COc1cc2c3c(c1OC)-c1ccccc1C(C(OC(C)=O)c1ccccc1)C3N(C)CC2 (configuration not stated)", "GI50": "31.8 µM (inactive)"}
{"Molecule": "Cc1cccc2c1Oc1cc(Cl)ccc1C2NC(=O)CCN1CCCCC1 (configuration not stated)", "GI50": "15.6 µM (inactive)"}
{"Molecule": "O=C(O)c1ccccc1-c1ccccc1C(=O)c1ccccc1", "GI50": "> 100 µM (inactive)"}
{"Molecule": "NC(=O)C(N)CC12CC3CC(CC(C3)C1)C2 (configuration not stated)", "GI50": "20.1 µM (inactive)"}
{"Molecule": "N#Cc1c(NC(=S)NCc2ccccc2)sc2c1CCN(N1CCc3c(sc(NC(=S)NCc4ccccc4)c3C#N)C1)C2", "GI50": "> 100 µM (inactive)"}
{"Molecule": "CCCCCCCCCC1CC(=O)Oc2cccc(O)c21 (configuration not stated)", "GI50": "29.6 µM (inactive)"}

Look up GI50 for the entries below, preserving their order.
1. NCCSSCCN [CYSTAMINE HYDROCHLORIDE]
2. Cc1occc1C(=S)Nc1ccc(Cl)c(C(=O)OCC(C)C)c1
3. O=C1C2Cc3ccccc3CN2C(=O)N1CCN1CCCC1 (configuration not stated)
4. Cc1nn(-c2ccccc2)c(S)c1C(=O)c1ccccc1
5. CCOC(=O)C1(C(=O)OCC)OC(C)=NC1(C(=O)OC)C(=O)OC
6. CCOP(=O)(OCC)C(C)(C)OC(=O)NC(F)(F)F

Reply:
> 100 µM (inactive)
16.3 µM (inactive)
> 100 µM (inactive)
33.5 µM (inactive)
> 100 µM (inactive)
> 100 µM (inactive)

Task item: So what does the record say about GI50 for O=C1CS(=O)(=O)C(c2cccc(Oc3ccccc3)c2)N1c1cccc(Cl)c1 (configuration not stated) ?
Reply: 36.6 µM (inactive)

====

# Test system: OVCAR-3
# Assay comment: NCI tumour cell line growth inhibition, 48 h
Activity calls are given as the source filed them. No stated cut-off is given here; in the data, active = GI50 up to about 1.1 µM and inactive = higher.
Please answer using one outcome listed in TRUE = active, FALSE = inactive

Examples with answers:
{"Molecule": "COc1cc(-c2ccccc2N)c2cccnc2c1OC", "Group label": "FALSE"}
{"Molecule": "N#C/C(=C\\c1ccc[nH]1)C(=O)c1ccccc1", "Group label": "FALSE"}
{"Molecule": "COc1cc(NCc2ccc3nc(N)nc(N)c3c2C)cc(OC)c1OC", "Group label": "TRUE"}
{"Molecule": "CC(C)CC(N)C(=O)O (configuration not stated)", "Group label": "FALSE"}
{"Molecule": "CC1=NCC[N+]1(CCc1ccccc1)Cc1ccccc1 (configuration not stated)", "Group label": "FALSE"}

Task item: State the result this test recorded for O=C(N/C(=C\c1ccc([N+](=O)[O-])cc1)c1nc2ccccc2s1)c1ccccc1 .
Reply: FALSE

Task item: State the result this test recorded for NC(Cc1ccccc1CP(=O)(O)O)C(=O)O (configuration not stated) .
Reply: FALSE

Task item: State the result this test recorded for O=C(Oc1cc(=O)c(OC(=O)c2ccccc2)co1)c1ccccc1 .
Reply: FALSE

Task item: State the result this test recorded for CC(=O)Nc1ccc2c3c(cc(O)c2c1)N(C(=O)CCCCC(=O)N1CC(CCl)c2c1cc(O)c1cc(NC(C)=O)ccc21)CC3CCl (configuration not stated) .
Reply: TRUE

Task item: State the result this test recorded for C=CCCC(O)c1cc(C)c(O)c(C)c1 (configuration not stated) .
Reply: FALSE

Task item: State the result this test recorded for c1ccc2[nH]c(C3CCCCO3)nc2c1 (configuration not stated) .
Reply: FALSE

Task item: State the result this test recorded for C#CCCOC(=O)c1ccccc1OC(C)=O .
Reply: FALSE

====

# System: OVCAR-4
# Assay comment: NCI tumour cell line growth inhibition, 48 h
Calls of active or inactive are those of the source. No stated cut-off is given here; in the data, active = GI50 up to about 1.1 µM and inactive = higher.
Value kind: GI50

{"Compound": "CSc1cc(=O)n2c3ccccc3c3ccnc1c32", "GI50": "> 100 µM (inactive)"}

Look up GI50 for the entries below, preserving their order.
1. COc1ccc2c3c([nH]c2c1)[C@H](C=C(C)C)N1C(=O)[C@@H]2CCCN2C(=O)[C@@H]1C3
2. O=C(NC1(C(=O)O)CC1c1ccccc1)c1ccccc1 (stereo not drawn)
3. O=C1CCC2(c3ccc(F)cc3)Nc3ccccc3N12 (stereo not drawn)
4. CCC1CC(C)=CCN1S(=O)(=O)c1ccc(C)cc1 (stereo not drawn)
5. O=[N+]([O-])c1cc(Cl)ccc1S(=O)(=O)c1ccc(Cl)cc1[N+](=O)[O-]
6. Cc1ccc2c(c1)C(=O)/C(=C\c1ccc(Cl)cc1)CCS2(=O)=O
7. CC[C@]12C=CCN3CC[C@@]4(c5cc(Br)c(OC)cc5N(C)[C@H]4[C@@](O)(C(=O)N[C@@H](Cc4ccc(O)cc4)C(=O)OC)[C@@H]1O)[C@@H]32
8. Cc1cc(O)c2c(c1)C(C1OC(CO)C(O)C(O)C1O)c1cc(O)cc(O)c1C2=O (stereo not drawn)

Reply:
["> 100 µM (inactive)", "> 100 µM (inactive)", "> 100 µM (inactive)", "39 µM (inactive)", "17.9 µM (inactive)", "2.64 µM (inactive)", "14.7 µM (inactive)", "> 100 µM (inactive)"]

This collection of values is drawn from ChEMBL document CHEMBL1201862.
